- System: Mus musculus
- procedure-details: Toxicity in ip dosed Albino Swiss mouse assessed as loss of righting reflex administered 60 mins before test measured up to 48 hrs
- Assay type: organism-based
- condition-set: in vivo
Lab note - cut at 700 mg/kg for ED50: label 1 if strictly below, label 0 if not.

{"columns": ["compound", "label"],
 "data": [
  ["CC(NC(=S)Nc1ccc(Cl)c([N+](=O)[O-])c1)c1ccccc1 (configuration not stated)", "label 0"],
  ["FC(F)(F)c1cccc(NC(=S)Nc2ccccc2Cl)c1", "label 0"],
  ["O=[N+]([O-])c1cc(NC(=S)NCc2ccccc2)ccc1Cl", "label 0"],
  ["Fc1ccc(NC(=S)Nc2cccc(C(F)(F)F)c2)cc1Cl", "label 1"],
  ["FC(F)(F)c1cccc(NC(S)=NCc2ccccc2)c1", "label 0"],
  ["COc1ccc(NC(=S)Nc2cccc(C(F)(F)F)c2)cc1", "label 0"]
]}
